As shown below, each of these compounds has a reported efflux ratio at 90 min, 10 μM value.
- assay.overview: in vitro
- condition.info: human, Caco-2, pH 7.4
- Protocol: Example 28: Caco-2 Permeability Assay The goal of this assay was to evaluate the intestinal absorption potential of drug candidates using Caco-2 cell lines. 1. Prewarm Prewarm HBSS Buffer in 37° C. water bath 2. Sonicate Take compounds from −20° C., sonicate for a few minutes (no less than 1 minute) HBSS buffer with 0.3% DMSO and 5 μM LY: add 150 μL DMSO and 50 μL LY (5 mM) into 50 ml HBSS buffer (pH 7.4). […] 1. Papp values were calculated based on calculated concentrations. […]

| compound | efflux ratio at 90 min, 10 μM |
| --- | --- |
| Cc1cccnc1[C@@H]1CCC[C@H](c2cn3c(-c4cccnc4)cccc3n2)N1C | 0.1 to 10 |
| CO[C@H](c1c([C@H]2CCC[C@@H](c3ncccc3C)N2C)nc2ccccn12)C1CCN(C)CC1 | > 30 |
| CN1CCN(c2cccc3nc([C@H]4CCC[C@@H](c5ncccc5Cl)N4)cn23)CC12CC2 | 0.1 to 10 |
| Cc1cccnc1[C@@H]1CCC[C@H](c2nc3cccc(N4CC5CCC(C4)N5C)n3c2Cl)N1C | 0.1 to 10 |
| Cc1cccnc1[C@@H]1CCC[C@H](c2nc3cccc(N4C5CCC4CN(C)C5)n3c2Cl)N1C | 0.1 to 10 |
| Cc1cccnc1[C@@H]1CCC[C@H](c2nc3cccc(N4CCN(C5CC5)CC4)n3c2CO)N1C | 0.1 to 10 |
| CC(C)c1cccnc1[C@@H]1CCC[C@H](c2cn3c(N4CCN(C)CC4)cccc3n2)N1C | 0.1 to 10 |
| Cc1cccnc1[C@@H]1CCC[C@H](c2nc3ccccn3c2COC2CCCN(C)C2)N1C (stereo partly drawn) | 10 to 30 |
| Cc1cccnc1[C@@H]1CCC[C@H](c2cn3c(N4CCC(N(C)C)CC4)cccc3n2)N1C | > 30 |
| Cc1cccnc1[C@@H]1CCC[C@H](c2nc3ccccn3c2[C@@H](O)C2CCN(C)CC2)N1C | > 30 |
| Cc1cccnc1[C@H]1CCC[C@@H](c2nc3ccccn3c2-c2ccncc2)N1 | 0.1 to 10 |
| Clc1cccnc1[C@@H]1CCC[C@H](c2cn3c(N4CCNC5(CC5)C4)cccc3n2)N1 | 0.1 to 10 |
| Cc1cccnc1[C@@H]1CCC[C@H](c2nc3cccc(N4CCN(C)CC4)n3c2Cl)N1C | 0.1 to 10 |
| CCN1CCN(Cc2c([C@H]3CCC[C@@H](c4ncccc4C)N3C)nc3ccccn23)CC1 | > 30 |
| CCOCc1c([C@H]2CCC[C@@H](c3ncccc3C)N2C)nc2cccc(N3CCN(C4CC4)CC3)n12 | 0.1 to 10 |

Origin of values: patent US10759796B2
